Tested on: PRMT1 (protein arginine N-methyltransferase 1)
Experiment: PRMT1 binders on small-molecule microarrays, primary screen, biochemical, small-molecule microarray, 635 nm fluorescence (AID 1088);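 further: binding of Prmt1 protein to compounds spotted on small-molecule microarray slides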
Settings: small-molecule microarray binding, higher = more signal
Provide the recorded composite z-score for the entries that follow.
Answers are plain numbers.

Solved entries (count: 7):
molecule: COCCCNC(=O)[C@]1(Cc2ccccc2N=[N+]=[N-])N=C(c2ccc(OCCCO)cc2)O[C@@H]1c1ccccc1
composite z-score: 1.46
//
molecule: COc1c(C)cc(-c2cc3c(c(CCc4ccccc4)n2)[Si](C(C)C)(C(C)C)O[C@H]3c2ccccc2)cc1C
composite z-score: -0.848
//
molecule: CC1(C)OB(/C=C\CC(OC(=O)c2ccncc2)c2ccccc2)OC1(C)C (stereo not drawn)
composite z-score: -0.477
//
molecule: C=C(CCCC)/C(=C/C[C@@H](OC(C)=O)c1ccc(OCCO)cc1)c1cc(C(=O)OC)ccc1OC
composite z-score: 1.55
//
molecule: OCCCc1cc[n+](Cc2cc3c(cc2Br)OCO3)cc1
composite z-score: 0.115
//
molecule: COC(=O)[C@@]1(Cc2ccc(F)cc2)[C@H]2c3cc(C(=O)N(C)C)n(CCF)c3C[C@H]2CN1C(=O)c1ccccc1
composite z-score: -0.0162
//
molecule: C=C(C(=O)CC[C@@H](OC(=O)c1ccccc1-c1ccccc1C(=O)O)c1cccc(OCCO)c1)C(C)C
composite z-score: 1.46

Look up and report measured composite z-score (PRMT1 (protein arginine N-methyltransferase 1)) for the following molecule: C=CCNC(=O)[C@@H]1[C@H]2C(=O)O[C@H](c3ccccc3)[C@H](c3ccccc3)N2[C@H](c2ccc(OCCO)cc2)[C@@]12C(=O)Nc1ccc(C#CCNC(N)=O)cc12
0.872
